test: small molecules captured by biotinylated probe aFSTL3 – biochemical, small-molecule microarray, fluorescence 635/667, stem cell growth factor project, primary screen (AID 1064); conditions: higher = more signal;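 also: measures binding of the biotinylated anti-FSTL3 antibody to printed compounds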
testReadout: composite z-score
No unit in the answer, only the number.

// composite z-score value for C=CC1c2cc(O)c(OC)cc2CCN1Cc1cccc(OC(F)(F)F)c1 (stereo not given) : 0.335

// composite z-score value for CC1CC/C=C\[C@H]2OC34C=CCN(Cn5nnc6ccccc65)C(=O)[C@H]3N(CCCCCO)C(=O)[C@@H]4C2C(=O)O1 (stereo not given in full) : -0.05

// composite z-score value for CC=CC(O)C1C=CC2C(=O)N(C)C(=O)C2N1N(c1ccccc1)c1ccccc1 (stereo not given) : -0.108

// composite z-score value for "CCCCCCc1nc(-c2ccc(-c3ccc(Cl)c(Cl)c3)o2)cc2c1[Si](C(C)C)(C(C)C)O[C@H]2c1ccccc1" : 0.0771

// composite z-score value for O=C1OCCC=C[C@H]2OC34C=CCN(Cn5nnc6ccccc65)C(=O)[C@H]3N(CCO)C(=O)[C@@H]4C12 (stereo not given in full) : -0.254

// composite z-score value for O=C1OCCC/C=C\[C@H]2OC34C=CCN(c5ccc6ccccc6c5)C(=O)[C@H]3N(CCCCCO)C(=O)[C@@H]4C12 (stereo not given in full) : 0.149

// composite z-score value for "O=C(NCCN1CCOCC1)[C@@H]1c2ccccc2C(=O)N(Cc2cc(C(F)(F)F)cc(C(F)(F)F)c2)[C@H]1c1ccc(CO)cc1" : 0.284

// composite z-score value for "NC(=O)[C@@H]1[C@H]2C(=O)O[C@H](c3ccccc3)[C@H](c3ccccc3)N2[C@H](c2ccc(O)cc2)[C@@]12C(=O)Nc1ccc(C#CC3=CCCCC3)cc12" : -0.542

// composite z-score value for "COc1cc2c(cc1OC)CN(C(=O)[C@H]1[C@@H]3C(=O)O[C@@H](c4ccccc4)[C@@H](c4ccccc4)N3[C@@H](c3ccccc3OCCO)[C@]13C(=O)Nc1ccc(C#CCCO)cc13)CC2" : -0.39

// composite z-score value for "O=C(O)[C@@]1(CCS(=O)(=O)c2ccccc2)N=C(c2ccc(OCCCO)cc2)O[C@H]1c1ccccc1" : 0.132

// composite z-score value for "COCCCNC(=O)[C@@H]1c2ccccc2C(=O)N(Cc2ccccc2)[C@H]1c1ccc(CO)cc1" : 0.0981

// composite z-score value for "O=C(O)[C@H](Cc1ccccc1)n1cc(-c2ccccc2)nn1" : -0.37

// composite z-score value for CC1CC/C=C\[C@H]2OC34C=CCN(Cc5ccccc5)C(=O)[C@H]3N(C(C)CO)C(=O)[C@@H]4C2C(=O)O1 (stereo not given in full) : -0.504

// composite z-score value for "COC(=O)C(CC#Cc1ccc2c(c1)[C@]1(C(=O)N2)[C@H](c2ccccc2OCCO)N2[C@H](c3ccccc3)[C@H](c3ccccc3)OC(=O)[C@H]2[C@@H]1C(=O)O)C(=O)OC" : 0.187

// composite z-score value for "COCCCNC(=O)[C@@]1(Cc2ccccc2)N=C(c2ccc(OCCCO)cc2)O[C@H]1c1ccccc1CN=[N+]=[N-]" : 0.988

----------
target: Neurogenic locus notch homolog protein 3 (Homo sapiens) (UniProt Q9UM47); assay: small molecules binding NOTCH3 protein – biochemical, 635/667 nm fluorescence, primary screen (AID 1096); settings: small-molecule microarray, 635 nm fluorescence, higher = more signal
Sequence (Q9UM47 whole entry, looked up): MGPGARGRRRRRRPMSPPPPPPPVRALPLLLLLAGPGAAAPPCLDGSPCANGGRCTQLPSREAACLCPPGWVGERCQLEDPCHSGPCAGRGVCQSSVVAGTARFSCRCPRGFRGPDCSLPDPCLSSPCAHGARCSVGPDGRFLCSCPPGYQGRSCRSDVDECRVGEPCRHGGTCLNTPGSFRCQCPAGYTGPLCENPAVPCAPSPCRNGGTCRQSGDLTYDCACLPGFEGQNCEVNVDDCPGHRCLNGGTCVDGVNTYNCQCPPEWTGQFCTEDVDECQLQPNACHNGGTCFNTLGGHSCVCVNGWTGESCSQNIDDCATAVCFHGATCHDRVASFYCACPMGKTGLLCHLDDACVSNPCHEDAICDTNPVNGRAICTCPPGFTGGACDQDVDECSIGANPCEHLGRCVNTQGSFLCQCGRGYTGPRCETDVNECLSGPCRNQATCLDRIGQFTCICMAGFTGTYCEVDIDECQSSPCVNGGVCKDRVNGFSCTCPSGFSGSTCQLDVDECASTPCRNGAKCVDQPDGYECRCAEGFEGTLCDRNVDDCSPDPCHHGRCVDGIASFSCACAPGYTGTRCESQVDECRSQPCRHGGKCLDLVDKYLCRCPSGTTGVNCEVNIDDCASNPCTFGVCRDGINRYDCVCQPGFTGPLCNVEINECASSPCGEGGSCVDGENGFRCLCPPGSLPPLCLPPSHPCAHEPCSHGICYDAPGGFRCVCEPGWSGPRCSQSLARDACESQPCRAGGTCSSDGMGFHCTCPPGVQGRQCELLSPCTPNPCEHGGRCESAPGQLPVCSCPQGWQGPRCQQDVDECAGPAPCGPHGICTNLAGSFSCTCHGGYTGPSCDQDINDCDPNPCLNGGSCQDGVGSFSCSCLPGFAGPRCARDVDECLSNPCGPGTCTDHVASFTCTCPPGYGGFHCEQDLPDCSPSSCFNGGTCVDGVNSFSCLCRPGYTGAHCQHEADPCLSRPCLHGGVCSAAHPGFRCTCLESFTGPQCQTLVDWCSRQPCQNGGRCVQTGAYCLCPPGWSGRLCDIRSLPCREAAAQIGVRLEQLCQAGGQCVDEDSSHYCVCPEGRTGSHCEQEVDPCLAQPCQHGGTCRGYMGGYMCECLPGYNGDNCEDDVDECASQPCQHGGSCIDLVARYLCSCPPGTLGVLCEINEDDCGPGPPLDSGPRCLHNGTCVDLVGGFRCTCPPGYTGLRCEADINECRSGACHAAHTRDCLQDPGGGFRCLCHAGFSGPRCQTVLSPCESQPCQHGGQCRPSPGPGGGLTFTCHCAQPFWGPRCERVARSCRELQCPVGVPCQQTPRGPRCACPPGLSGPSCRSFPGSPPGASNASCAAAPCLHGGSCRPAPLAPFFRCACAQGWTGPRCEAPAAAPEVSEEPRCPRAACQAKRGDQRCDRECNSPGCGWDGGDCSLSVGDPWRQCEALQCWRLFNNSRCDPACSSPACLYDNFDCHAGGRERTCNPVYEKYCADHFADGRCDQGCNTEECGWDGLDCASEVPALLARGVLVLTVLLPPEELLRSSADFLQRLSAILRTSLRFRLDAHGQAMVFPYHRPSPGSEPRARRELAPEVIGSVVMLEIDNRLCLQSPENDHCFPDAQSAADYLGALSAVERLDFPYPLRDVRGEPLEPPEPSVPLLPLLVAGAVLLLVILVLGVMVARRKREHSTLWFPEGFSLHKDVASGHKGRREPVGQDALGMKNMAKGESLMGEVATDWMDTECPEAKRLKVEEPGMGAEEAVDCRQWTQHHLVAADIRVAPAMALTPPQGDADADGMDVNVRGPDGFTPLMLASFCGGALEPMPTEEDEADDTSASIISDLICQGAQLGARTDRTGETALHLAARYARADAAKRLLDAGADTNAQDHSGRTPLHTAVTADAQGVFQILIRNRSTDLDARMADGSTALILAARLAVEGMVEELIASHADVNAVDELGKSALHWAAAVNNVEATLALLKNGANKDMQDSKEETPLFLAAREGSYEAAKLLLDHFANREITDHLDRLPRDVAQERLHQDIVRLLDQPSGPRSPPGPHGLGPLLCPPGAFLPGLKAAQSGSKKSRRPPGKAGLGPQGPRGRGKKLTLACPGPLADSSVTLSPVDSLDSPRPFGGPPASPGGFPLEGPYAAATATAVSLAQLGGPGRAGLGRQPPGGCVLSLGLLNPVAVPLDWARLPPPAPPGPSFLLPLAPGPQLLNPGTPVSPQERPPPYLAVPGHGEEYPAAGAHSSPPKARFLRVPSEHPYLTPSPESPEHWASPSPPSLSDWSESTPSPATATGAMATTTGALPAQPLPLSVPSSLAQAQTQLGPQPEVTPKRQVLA
testReadout: composite z-score

Considering "C=CC[C@@]1(C(=O)N2CCCCC2)N=C(c2ccc(OCCCO)cc2)O[C@@H]1c1ccccc1CN=[N+]=[N-]" , its composite z-score with Neurogenic locus notch homolog protein 3 (Homo sapiens) (UniProt Q9UM47) was recorded as 1.08

Considering "CCOC(=O)C[C@H]1[C@H](OC(=O)c2cc3ccccc3oc2=O)[C@@H](NC(=O)CC(C)C)c2cc(OCCCO)ccc2N1C(=O)c1ccccc1" , its composite z-score with Neurogenic locus notch homolog protein 3 (Homo sapiens) (UniProt Q9UM47) was recorded as 0.606

Considering "[N-]=[N+]=NCc1ccccc1[C@@H]1OC(c2ccc(OCCCO)cc2)=N[C@]1(CCS(=O)(=O)c1ccccc1)C(=O)N1CCCCC1" , its composite z-score with Neurogenic locus notch homolog protein 3 (Homo sapiens) (UniProt Q9UM47) was recorded as 1.02

Considering O=C1NC(=O)C2C1C=CC(C(O)C1CC=CCC1)N2Nc1ccccn1 (stereo unspecified) , its composite z-score with Neurogenic locus notch homolog protein 3 (Homo sapiens) (UniProt Q9UM47) was recorded as 0.328

Considering "COC(=O)[C@@]1(Cc2ccccc2)[C@H]2c3cc(C(=O)N(C)C)n(Cc4ccc(OC)c(OC)c4)c3C[C@H]2CN1C(=O)c1ccccc1" , its composite z-score with Neurogenic locus notch homolog protein 3 (Homo sapiens) (UniProt Q9UM47) was recorded as 1.03

Considering "C=CCN1Cc2ccccc2[C@@H]2OC(c3ccc(OCCCO)cc3)=N[C@]2(CCS(=O)(=O)c2ccccc2)C1=O" , its composite z-score with Neurogenic locus notch homolog protein 3 (Homo sapiens) (UniProt Q9UM47) was recorded as 1.01

Considering O=C1OCCC=C[C@H]2OC34C=CCN(Cn5nnc6ccccc65)C(=O)[C@H]3N(CCO)C(=O)[C@@H]4C12 (stereo partly specified) , its composite z-score with Neurogenic locus notch homolog protein 3 (Homo sapiens) (UniProt Q9UM47) was recorded as -0.491

Considering O=C1C2C=CC(C(O)c3c(F)cccc3Cl)N(Nc3ccccc3F)C2C(=O)N1c1ccccc1 (stereo unspecified) , its composite z-score with Neurogenic locus notch homolog protein 3 (Homo sapiens) (UniProt Q9UM47) was recorded as 1.05

Considering "O=C(NC1CC1)[C@@H]1c2ccccc2C(=O)N(C2Cc3ccccc3C2)[C@H]1c1ccc(CO)cc1" , its composite z-score with Neurogenic locus notch homolog protein 3 (Homo sapiens) (UniProt Q9UM47) was recorded as 0.722

Considering "C[N+](C)(C)CCCC[C@@H]1NC(=O)[C@H]2C[C@@H](C(=O)NCCCCCCNC(=O)CS)[C@@H](c3ccc(O)cc3)N2C1=O" , its composite z-score with Neurogenic locus notch homolog protein 3 (Homo sapiens) (UniProt Q9UM47) was recorded as -1.06

Considering C=C(C)[C@@H]1CC=C(C(O)C2C=CC3C(=O)NC(=O)C3N2Nc2ccc(Cl)cc2Cl)CC1 (stereo partly specified) , its composite z-score with Neurogenic locus notch homolog protein 3 (Homo sapiens) (UniProt Q9UM47) was recorded as 1.06

Considering "COc1ccc([Si](C)(C)[C@@H]2[C@@H](CCn3cc(CCO)nn3)O[C@]3(C(=O)N(Cc4cccc(N5C(=O)c6cccc7cccc5c67)c4)c4ccccc43)[C@H]2C)cc1" , its composite z-score with Neurogenic locus notch homolog protein 3 (Homo sapiens) (UniProt Q9UM47) was recorded as 0.903

Considering "CC[C@@H]1C=C(C(=O)O)[C@H](c2ccc(C)cc2)N1S(=O)(=O)c1ccc(C)cc1" , its composite z-score with Neurogenic locus notch homolog protein 3 (Homo sapiens) (UniProt Q9UM47) was recorded as 0.939

Considering "CC(C)[Si](C#CCCCC#N)(Oc1ccccc1Br)C(C)C" , its composite z-score with Neurogenic locus notch homolog protein 3 (Homo sapiens) (UniProt Q9UM47) was recorded as 0.653

Considering "[N-]=[N+]=Nc1ccccc1C[C@@]1(C(=O)N2CCCCC2)N=C(c2ccc(OCCCO)cc2)O[C@@H]1c1ccccc1" , its composite z-score with Neurogenic locus notch homolog protein 3 (Homo sapiens) (UniProt Q9UM47) was recorded as 1.04

Considering "COc1ccc([C@H]2C[C@H]3C(I)=C[C@@H]2C(=O)[C@]32CO2)cc1" , its composite z-score with Neurogenic locus notch homolog protein 3 (Homo sapiens) (UniProt Q9UM47) was recorded as 0.816

Considering CN1C(=O)C2C=CC(C(O)c3ccc(F)cc3)N(N(c3ccccc3)c3ccccc3)C2C1=O (stereo unspecified) , its composite z-score with Neurogenic locus notch homolog protein 3 (Homo sapiens) (UniProt Q9UM47) was recorded as 0.121

Considering "C=CCN1C(=O)[C@]2(O[C@H](CCO)[C@@H]([Si](C)(C)c3ccc(OC)cc3)[C@@H]2C)c2cc(N(C=O)c3ccccc3)ccc21" , its composite z-score with Neurogenic locus notch homolog protein 3 (Homo sapiens) (UniProt Q9UM47) was recorded as 0.649

Considering "Cc1ccc(S[C@]2(C(=O)NCC(C)C)CC(=O)N(Cc3cc(C(F)(F)F)cc(C(F)(F)F)c3)[C@@H]2c2ccc(CO)cc2)cc1" , its composite z-score with Neurogenic locus notch homolog protein 3 (Homo sapiens) (UniProt Q9UM47) was recorded as -0.643

Considering CC(C)CCC[C@@H](C)[C@H]1CC[C@@]2(C)C3=C(CC[C@]12C)[C@@]1(C)CC[C@H](OC(=O)c2ccc(C(F)(F)F)nc2)C(C)(C)C1CC3 (stereo partly specified) , its composite z-score with Neurogenic locus notch homolog protein 3 (Homo sapiens) (UniProt Q9UM47) was recorded as 0.483

Considering "COc1cc(CO)cc(I)c1O[C@H]1C=C(C(=O)NCCO)C[C@@H](NC[C@@H]2CCCO2)[C@@H]1O" , its composite z-score with Neurogenic locus notch homolog protein 3 (Homo sapiens) (UniProt Q9UM47) was recorded as 0.554

Considering "COCC(=C=CC[C@@H](O)c1ccc(OCCO)cc1)C[C@@H](O)c1ccccn1" , its composite z-score with Neurogenic locus notch homolog protein 3 (Homo sapiens) (UniProt Q9UM47) was recorded as -0.0817

Considering "C#CCN1[C@@H](Cc2ccc(O)cc2)C(=O)O[C@H](Cc2ccccc2)[C@@H]1/C=C/C1CC1" , its composite z-score with Neurogenic locus notch homolog protein 3 (Homo sapiens) (UniProt Q9UM47) was recorded as -0.139

Considering "C=C(/C(=C/C[C@H](OC(=O)c1ccncc1)c1ccc(OCCO)cc1)c1cc(C(=O)OC)ccc1OC)C(C)C" , its composite z-score with Neurogenic locus notch homolog protein 3 (Homo sapiens) (UniProt Q9UM47) was recorded as 0.381

Considering "O=C(O)[C@@]1(CCS(=O)(=O)c2ccccc2)N=C(c2ccc(OCCCO)cc2)O[C@H]1c1ccccc1" , its composite z-score with Neurogenic locus notch homolog protein 3 (Homo sapiens) (UniProt Q9UM47) was recorded as -0.0296

Considering "O=C1[C@@]23C=C(Br)[C@H](C[C@@H]2COC3)[C@]12CO2" , its composite z-score with Neurogenic locus notch homolog protein 3 (Homo sapiens) (UniProt Q9UM47) was recorded as -1.5

Considering "CCOC(=O)C[C@H]1[C@H](OC(=O)c2ccc(C(=O)c3ccccc3)cc2)[C@@H](NC(=O)c2ccccc2)c2cc(OCCCO)ccc2N1C(=O)c1ccccc1" , its composite z-score with Neurogenic locus notch homolog protein 3 (Homo sapiens) (UniProt Q9UM47) was recorded as 1.01

Considering "CCOC(=O)C[C@H]1[C@H](OC(=O)c2ccc(-c3ccccc3)cc2)[C@@H](NC(=O)c2ccccc2)c2cc(OCCCO)ccc2N1C(=O)Cc1ccc(OC)cc1" , its composite z-score with Neurogenic locus notch homolog protein 3 (Homo sapiens) (UniProt Q9UM47) was recorded as -0.712

Considering "C=C(CCCC)/C(=C/C[C@H](OC(C)=O)c1ccc(OCCO)cc1)c1cnc2ccccc2c1" , its composite z-score with Neurogenic locus notch homolog protein 3 (Homo sapiens) (UniProt Q9UM47) was recorded as 0.727

Considering "COCCCNC(=O)[C@@]1(Cc2ccccc2CN=[N+]=[N-])N=C(c2ccc(OCCCO)cc2)O[C@H]1c1ccccc1CN=[N+]=[N-]" , its composite z-score with Neurogenic locus notch homolog protein 3 (Homo sapiens) (UniProt Q9UM47) was recorded as 0.885

Considering O=C1NC(=O)C2C1C=CC(C(O)c1ccc(I)cc1)N2Nc1ccccn1 (stereo unspecified) , its composite z-score with Neurogenic locus notch homolog protein 3 (Homo sapiens) (UniProt Q9UM47) was recorded as 0.15
